The reported measurements were obtained from ChEMBL document CHEMBL1201862.

system: SW-620; experiment: NCI tumour cell line growth inhibition, 48 h
Activity calls are given as the source filed them. Rule as the data show it: active = GI50 up to about 1.1 µM and inactive = higher.
Listed compounds paired with reported GI50

Known value: SW-620 GI50 of the compound O=Cc1ccc(-c2cc(C=O)c(-c3cccs3)[nH]2)s1 equals > 75 µM (inactive)

Known value: SW-620 GI50 of the compound COc1ccc(OC)c2[nH]c(Sc3c([N+](=O)[O-])ncn3C)nc12 equals 24.5 µM (inactive)

Known value: SW-620 GI50 of the compound CC(=O)CCn1c(=S)sc2ccccc21 equals > 100 µM (inactive)

Known value: SW-620 GI50 of the compound COc1cc(/C=C(/C#N)C(N)=O)ccc1O equals > 100 µM (inactive)

Known value: SW-620 GI50 of the compound CCOc1ccc(/N=N/c2ccc(-c3ccc(/N=N/c4c(O)ccc5cc(S(=O)(=O)O)cc(S(=O)(=O)O)c45)cc3)cc2)cc1 equals > 100 µM (inactive)

====

Listed compounds paired with reported GI50
tested on: SK-OV-3; test: NCI tumour cell line growth inhibition, 48 h
Calls of active or inactive are those of the source. No stated cut-off is given here; in the data, active = GI50 up to about 1.1 µM and inactive = higher.

Consider the reported GI50 for these compounds:
Compound: CCc1cc2c(cc1C(=O)CCC(=O)O)CC1(C2)Cc2cc(CC)c(C(=O)CCC(=O)O)cc2C1
GI50: > 100 µM (inactive)
//
Compound: C=CC[C@@H]1C(=O)[C@@]2(O[Si](C(C)C)(C(C)C)C(C)C)CC[C@@H]1C[C@H]2NC(=O)OCC(Cl)(Cl)Cl
GI50: > 100 µM (inactive)
//
Compound: NC(=O)CCC(N=C(N)c1csc(C2OC(CO)C(O)C2O)n1)C(=O)O (stereo unspecified)
GI50: > 100 µM (inactive)
//
Compound: COc1ccc(NC(=O)C(C)Oc2ccc(OCC3CCCCC3)cc2)cc1 (stereo unspecified)
GI50: > 100 µM (inactive)
//
Compound: COC(=O)C1=C(O)C(C(=O)OC)[C@@]2(O)[C@@H](C(=O)OC)CC[C@@H]1[C@@H]2C(=O)OC (stereo partly specified)
GI50: 19.2 µM (inactive)
//
Compound: CC(=O)NC1(c2cc3ccccc3s2)CCCCCC1
GI50: 37.1 µM (inactive)
//
Compound: CSc1nncc(-c2cc3c(c(SC)n2)CCCC3)n1
GI50: 40.1 µM (inactive)
//
Compound: O=c1oc2ncccc2n1Cc1ccc([N+](=O)[O-])cc1
GI50: > 100 µM (inactive)
//
Compound: CC1=C(c2cc(C(=O)Nc3cccc(C(F)(F)F)c3)ncn2)Sc2ccccc2N1
GI50: > 100 µM (inactive)
//
Compound: N=C(NCc1ccccc1)N/N=C\c1ccnc2ccccc12
GI50: 15.5 µM (inactive)

# GI50 (compound: c1ccc(CN(Cc2ccccn2)Cn2cccn2)nc1 ) is 43 µM (inactive)

====

tested on: ACHN; assay: NCI tumour cell line growth inhibition, 48 h
Calls of active or inactive are those of the source. Cut-off read from the data, not from the text of the source: active = GI50 up to about 1.1 µM and inactive = higher.
Observed property: GI50

Consider the reported GI50 for these compounds:
Compound: Cn1ccnc1Sc1ccc(/C=N/NC(=O)c2ccccc2O)cc1[N+](=O)[O-]
Observed measurement: > 100 µM (inactive)
//
Compound: [O-][s+]1c2c(Cc3ccccc3)c(Cc3ccccc3)c1CCc1cccc(c1)CC2
Observed measurement: 16.7 µM (inactive)
//
Compound: COC(=O)C1=C(OC(=O)c2ccccc2)C(C(=O)OC)[C@@]2(O)[C@@H](C(=O)OC)[C@H](C)C[C@@H]1[C@@H]2C(=O)OC (some centres undefined)
Observed measurement: 31.6 µM (inactive)

# GI50 (compound: Cc1ccc2nc(/C(=C/c3ccc(/C=C(\NC(=O)c4ccccc4)c4nc5ccc(C)cc5[nH]4)c(C)c3)NC(=O)c3ccccc3)[nH]c2c1 ) is 8.45 µM (inactive)

# GI50 (compound: O=C(O)c1c(O)c2cc(Br)ccc2oc1=O ) is > 100 µM (inactive)

# GI50 (compound: C=CCN1C(=O)/C(=C/c2ccc(Cl)cc2)N=C1SC/C=C/C ) is 56.2 µM (inactive)

====

tested on: SF-295; experiment: NCI tumour cell line growth inhibition, 48 h
Active and inactive are the calls of the source. Cut-off read from the data, not from the text of the source: active = GI50 up to about 1.1 µM and inactive = higher.
Observed property: GI50

# GI50 (compound: Cn1ccnc1Sc1ccc(/C=N/NC(=O)c2ccccc2O)cc1[N+](=O)[O-] ) is > 100 µM (inactive)

# GI50 (compound: O=C(Cc1ccc(Cl)cc1)Nc1ccc2oc(-c3ccccc3)nc2c1 ) is > 100 µM (inactive)

# GI50 (compound: Nc1nc(Cl)c(CO)c(NCC2(CO)CCC2)n1 ) is > 100 µM (inactive)

# GI50 (compound: CC(C)(C)c1cc(C2=NN(c3ccccc3)C(c3ccccc3)C2)cc(C(C)(C)C)c1O (stereo unspecified) ) is > 100 µM (inactive)

# GI50 (compound: CC(=O)N(O)Cc1ccccc1 ) is > 100 µM (inactive)

# GI50 (compound: COC(=O)CCC(NC(=O)C(C)NC(=O)COC1C(O)C(OC(=O)CCNc2c3ccccc3nc3cccc([N+](=O)[O-])c23)OC(OCc2ccccc2)C1NC(C)=O)C(N)=O (stereo unspecified) ) is > 10 µM (inactive)

# GI50 (compound: Cc1ccc2c(c1)NC(c1ccc(C(=O)O)cc1)c1cccn1-2 (stereo unspecified) ) is 37.8 µM (inactive)

# GI50 (compound: CC(C)[C@H](NC(=O)[C@H](N)Cc1ccc(N(CCCl)CCCl)cc1)C(=O)O ) is > 100 µM (inactive)

# GI50 (compound: CC1(C23CC4CC(CC(C4)C2)C3)n2c(=O)n(-c3ccccc3)c(=O)n2C1(C)C12CC3CC(CC(C3)C1)C2 (stereo unspecified) ) is > 100 µM (inactive)

# GI50 (compound: COc1nc2ccc(COc3ccc(C(=O)O)cc3)cc2nc1OC ) is 32.9 µM (inactive)

# GI50 (compound: CC1=C[P+](Cc2ccccc2)(c2ccccc2)CC1 (stereo unspecified) ) is > 100 µM (inactive)

# GI50 (compound: NC(=S)N/N=C(\CC1OC(=O)c2ccccc21)c1ccc(Cl)cc1 (stereo unspecified) ) is 41.9 µM (inactive)

# GI50 (compound: Nc1nc2c(c(-c3cccc(Cl)c3)n1)COC/C2=C\c1cccc(Cl)c1 ) is > 100 µM (inactive)

====

system: A498; experiment: NCI tumour cell line growth inhibition, 48 h
Calls of active or inactive are those of the source. No stated cut-off is given here; in the data, active = GI50 up to about 1.1 µM and inactive = higher.
Listed compounds paired with reported GI50

Consider the reported GI50 for these compounds:
Compound: COC(=O)C(Cc1nc2ccccc2nc1O)C(=O)C(=O)Nc1ccc([N+](=O)[O-])cc1[N+](=O)[O-] (stereo not drawn)
GI50: 23 µM (inactive)
//
Compound: Cc1cccc2c1C(=O)C1(Cc3ccccc3C1=O)C2 (stereo not drawn)
GI50: 47.1 µM (inactive)

# GI50 (compound: COC1(CC[C@@H](C)COC2OC(CO)C(O)C(O)C2O)OC2C[C@H]3[C@@H]4CC[C@H]5C[C@@H](OC6OC(CO)C(OC7OC(CO)C(O)C(O)C7O)C(O)C6OC6OC(C)C(O)C(O)C6O)[C@H](O)C[C@]5(C)[C@H]4CC[C@]3(C)C2[C@@H]1C (stereo partly drawn) ) is 1.81 µM (inactive)

====

Listed compounds paired with reported GI50
test system: OVCAR-3; assay: NCI tumour cell line growth inhibition, 48 h
The source made the active and inactive calls. No stated cut-off is given here; in the data, active = GI50 up to about 1.1 µM and inactive = higher.

Compound: [N-]=[N+]=NCC1OCC(O)C(OCc2ccccc2)C1OCc1ccccc1 (stereo unspecified)
Observed measurement: > 100 µM (inactive)
--
Compound: CCOC(=O)NC(=S)c1ccc(O)c2ccccc12
Observed measurement: 49.8 µM (inactive)
--
Compound: CC(=O)OC(=C(C#N)C#N)c1nccnc1C(C)=O
Observed measurement: 14.6 µM (inactive)
--
Compound: O=C(/N=C(/Nc1ccccc1)SCS/C(=N\C(=O)c1ccco1)Nc1ccccc1)c1ccco1
Observed measurement: 40.8 µM (inactive)
--
Compound: CSc1ccc(C2C(Cl)C(=O)N2NC(=O)c2c(Cl)c(Cl)c(Cl)c(Cl)c2-c2nc3ccccc3[nH]2)cc1 (stereo unspecified)
Observed measurement: 21.8 µM (inactive)

# GI50 (compound: O=C1c2ccccc2OCC1/C=N/O (stereo unspecified) ) is > 100 µM (inactive)

# GI50 (compound: CCCC(=O)OCC1(CO)C/C(=C/CC(C(C)C)C(C)C)C(=O)O1 (stereo unspecified) ) is > 100 µM (inactive)

# GI50 (compound: Cn1/c(=N\S(=O)(=O)c2ccccc2)n(S(=O)(=O)c2ccccc2)c2ccccc21 ) is 36.2 µM (inactive)

# GI50 (compound: COc1ccc(N(CN2C(=O)CCC2C(=O)O)C(C)=O)cc1 (stereo unspecified) ) is > 100 µM (inactive)

====

test system: RXF 393; test: NCI tumour cell line growth inhibition, 48 h
The source made the active and inactive calls. No stated cut-off is given here; in the data, active = GI50 up to about 1.1 µM and inactive = higher.
Outcomes you can answer with include only these: active, inactive

Compound: CCCC(=O)OCC1(CO)C/C(=C/CC(C(C)C)C(C)C)C(=O)O1 (stereo unspecified)
Label class: inactive

Compound: CC(C)N(CCCNc1c2ccccc2nc2cccc([N+](=O)[O-])c12)C(C)C
Label class: active

Compound: COc1ccc(C2=C(Cl)c3cc(OC)c(OC)cc3C2=O)cc1OC
Label class: inactive

# fetch the recorded call for CC(=O)c1cc(C)n2c1CS[C@@H]2c1ccccc1 here
inactive

# fetch the recorded call for NS(=O)(=O)c1ccc(NC(=O)c2cccc3cc4ccccc4nc23)cc1 here
inactive

# fetch the recorded call for COc1ccc(OC)c2[nH]c(Sc3c([N+](=O)[O-])ncn3C)nc12 here
inactive

# fetch the recorded call for CC1=C2C(O)C(C(C)C(=O)NCC(C)C)CCC2(C)C=CC1=O (stereo unspecified) here
inactive

# fetch the recorded call for Cc1cc(OCC(O)CO)ccc1-c1ccccc1 (stereo unspecified) here
inactive

# fetch the recorded call for O=C1c2scc(-c3ccc(F)cc3)c2-n2cccc21 here
inactive

# fetch the recorded call for CC(C)C1OC(N)=C(C#N)C1(C#N)C#N (stereo unspecified) here
inactive

# fetch the recorded call for CC(=O)NC(CCCN(Cc1ccccc1)C(=O)N(CCCl)N=O)C(=O)NCc1ccccc1 (stereo unspecified) here
inactive

# fetch the recorded call for NC1(C(=O)O)CCC(C(=O)O)CC1 (stereo unspecified) here
inactive

# fetch the recorded call for O=C1NC(N2CCCC(CO)C2)=N/C1=C\c1ccccc1 (stereo unspecified) here
inactive

# fetch the recorded call for C#CC(O)/C=C/C(O)CCCC(O)CC#CC(O)C#CCCCCC(O)/C=C/CCCC(=O)CCCCCCCCCCCCCCCC(O)C(O)C#CC(=O)O (stereo unspecified) here
inactive

# fetch the recorded call for O=[N+]([O-])c1ccc2c(Nc3ccccc3-c3ccccc3Nc3c4ccccc4nc4cc([N+](=O)[O-])ccc34)c3ccccc3nc2c1 here
inactive

# fetch the recorded call for O=C(Cc1ccc(Cl)cc1)Nc1ccc2oc(-c3ccccc3)nc2c1 here
inactive

# fetch the recorded call for CC1(C)S[C@@H]2[C@H](N3C(=O)c4ccccc4C3=O)CN2[C@H]1NC(=O)N[C@@H]1N2C[C@@H](N3C(=O)c4ccccc4C3=O)[C@H]2SC1(C)C here
inactive

# fetch the recorded call for O=C1C(Cl)N(c2ccc(Cl)cc2Cl)C1c1c[nH]c2ccccc12 (stereo unspecified) here
inactive

# fetch the recorded call for O=C(O)c1c(O)c2cc(Br)ccc2oc1=O here
inactive

# fetch the recorded call for COc1ccccc1N1C(=O)C2C3c4ccccc4C(OC(C)=O)(c4ccccc43)C2C1=O (stereo unspecified) here
inactive

# fetch the recorded call for CC(C)[C@H](NC(=O)[C@H](N)Cc1ccc(N(CCCl)CCCl)cc1)C(=O)O here
inactive
